Test system: Moraxella catarrhalis
procedure_details: Antimicrobial activity against Moraxella catarrhalis ATCC 25238 incubated for 24 hrs by serial dilution method
Type: functional
reported_conditions: ATCC 25238, 24 h
measured_property: MIC (µg/mL)
Give just the numeric value; µg/mL need not be written.

## Task Return reported MIC; argument: O=C(NO)c1cn(C2CC2)c2cc(-n3cc(CN4CCOCC4)nn3)c(F)cc2c1=O
## Result 8

## Task Return reported MIC; argument: CCN(CC)Cc1cn(-c2cc3c(cc2F)c(=O)c(C(=O)NO)cn3C2CC2)nn1
## Result 16

## Task Return reported MIC; argument: CCCN(CCC)Cc1cn(-c2cc3c(cc2F)c(=O)c(C(=O)NO)cn3C2CC2)nn1
## Result 64

## Task Return reported MIC; argument: O=C(NO)c1cn(C2CC2)c2cc(-n3cc(CN4CCCCC4)nn3)c(F)cc2c1=O
## Result 64

---

What MIC was measured for each of the following?
System: Helicobacter pylori
procedure_details: Antimicrobial activity against Helicobacter pylori clinical isolate 1 after 7 days by two-fold agar dilution method
Assay type: functional
reported_conditions: clinical isolate 1, 168 h

## Task Return reported MIC; argument: COc1ccc(Nc2c(F)cc3c(=O)c(C(=O)O)cn(C4CC4)c3c2N)cc1
## Result 2.5 µg/mL

## Task Return reported MIC; argument: Nc1c(Nc2ccc(Cl)cc2)c(F)cc2c(=O)c(C(=O)O)cn(C3CC3)c12
## Result 5 µg/mL

## Task Return reported MIC; argument: Cc1ccc(Nc2c(F)cc3c(=O)c(C(=O)O)cn(C4CC4)c3c2N)cc1
## Result 5 µg/mL

## Task Return reported MIC; argument: COc1ccc(-n2nnc3c4c(cc(F)c32)c(=O)c(C(=O)O)cn4C2CC2)cc1
## Result 2.5 µg/mL

## Task Return reported MIC; argument: Nc1c(Nc2ccccc2)c(F)cc2c(=O)c(C(=O)O)cn(C3CC3)c12
## Result 0.6 µg/mL

## Task Return reported MIC; argument: Cc1ccc(-n2nnc3c4c(cc(F)c32)c(=O)c(C(=O)O)cn4C2CC2)cc1
## Result 5 µg/mL

## Task Return reported MIC; argument: Nc1c(Nc2ccc(F)cc2)c(F)cc2c(=O)c(C(=O)O)cn(C3CC3)c12
## Result 2.5 µg/mL

## Task Return reported MIC; argument: O=C(O)c1cn(C2CC2)c2c(cc(F)c3c2nnn3-c2ccc(Cl)cc2)c1=O
## Result 5 µg/mL

## Task Return reported MIC; argument: O=C(O)c1cn(C2CC2)c2c(cc(F)c3nn(CN(N4CCCC4)N4CCCC4)c(=O)n32)c1=O
## Result 2.5 µg/mL

---

System: Staphylococcus epidermidis
procedure_details: Antimicrobial activity against methicillin-resistant Staphylococcus epidermidis clinical isolate incubated for 16 hrs by CLSI based agar dilution method
Type: functional
What MIC was measured for each of the following?
For clarity, give the value followed by its unit.

## Task API: value(readout=MIC, system=Staphylococcus epidermidis) for record COc1c(N2C[C@@H]3CCCN(C[C@H](O)Cn4cc([N+](=O)[O-])nc4C)[C@@H]3C2)c(F)cc2c(=O)c(C(=O)O)cn(C3CC3)c12
## Result 0.03 µg/mL

## Task API: value(readout=MIC, system=Staphylococcus epidermidis) for record COc1c(N2CCCC(N(C)C[C@@H](O)Cn3cc([N+](=O)[O-])nc3C)C2)c(F)cc2c(=O)c(C(=O)O)cn(C3CC3)c12 (some centres not stated)
## Result 0.25 µg/mL

## Task API: value(readout=MIC, system=Staphylococcus epidermidis) for record COc1c(N2CCCC(N(C)CC(O)Cn3cc([N+](=O)[O-])nc3C)C2)c(F)cc2c(=O)c(C(=O)O)cn(C3CC3)c12 (configuration not stated)
## Result 0.125 µg/mL

## Task API: value(readout=MIC, system=Staphylococcus epidermidis) for record CCn1cc(C(=O)O)c(=O)c2cc(F)c(N3CCN(CC(O)Cn4cc([N+](=O)[O-])nc4Cl)C(C)C3)c(F)c21 (configuration not stated)
## Result 0.125 µg/mL

## Task API: value(readout=MIC, system=Staphylococcus epidermidis) for record COc1c(N2C[C@@H]3CCCN(CC(O)Cn4cc([N+](=O)[O-])nc4C)[C@@H]3C2)c(F)cc2c(=O)c(C(=O)O)cn(C3CC3)c12 (some centres not stated)
## Result 0.125 µg/mL

## Task API: value(readout=MIC, system=Staphylococcus epidermidis) for record O=C(O)c1cn(C2CC2)c2nc(N3CCN(CC(O)Cn4cc([N+](=O)[O-])nc4Cl)CC3)c(F)cc2c1=O (configuration not stated)
## Result 0.125 µg/mL

## Task API: value(readout=MIC, system=Staphylococcus epidermidis) for record O=C(O)c1cn(C2CC2)c2cc(N3CCN(CC(O)Cn4cc([N+](=O)[O-])nc4Cl)CC3)c(F)cc2c1=O (configuration not stated)
## Result 2 µg/mL
